Each recorded value in this set is attributed to ChEMBL document CHEMBL3763135.

Organism: Danio rerio
Test Name: Toxicity against zebrafish embryo assessed as growth retardation at 2.5 ug/ml measured at 96 hrs post fertilization by inverted microscopic analysis
Assay type: organism-based
Condition Notes: in vivo
Quantity Kind: Activity (%)
Numbers only; they are read as %.

Below, each entry is followed by its recorded Activity result.
INSERT INTO results (chemical_smiles, recorded_result) VALUES
  ('Cc1ccc(-c2ccc(/C=N/NC(=N)N)s2)cc1.Cl', 0),
  ('Cl.Cl.N=C(N)N/N=C/c1ccc(-c2ccc(/C=N/NC(=N)N)s2)cc1', 0),
  ('Cl.N=C(N)N/N=C/c1ccc(-c2ccc(Br)cc2)s1', 0);

Kindly consider the entry below.
QUERY: Value lookup for Activity; key = C[C@@H](c1ncncc1F)[C@](O)(Cn1cncn1)c1ccc(F)cc1F
RESULT: 100

---

Species on record: Danio rerio
Test Name: Toxicity against zebrafish embryo assessed as head malformation at 2.5 ug/ml measured at 96 hrs post fertilization by inverted microscopic analysis
Format: organism-based
Condition Notes: in vivo
Quantity Kind: Activity (%)
State just the number; it will be interpreted in %.

Answered examples (3):
INSERT INTO results (compound, recorded_result) VALUES
  ('Cc1ccc(-c2ccc(/C=N/NC(=N)N)s2)cc1.Cl', 0),
  ('C[C@@H](c1ncncc1F)[C@](O)(Cn1cncn1)c1ccc(F)cc1F [VORICONAZOLE]', 100),
  ('Cl.Cl.N=C(N)N/N=C/c1ccc(-c2ccc(/C=N/NC(=N)N)s2)cc1', 0);

Shift focus to the following entry.
QUERY: Activity for Cl.N=C(N)N/N=C/c1ccc(-c2ccc(Br)cc2)s1 ?
RESULT: 0

---

Tested on: Danio rerio
Test Name: Toxicity against zebrafish embryo assessed as pericardial edema at 2.5 ug/ml measured at 96 hrs post fertilization by inverted microscopic analysis
Format: organism-based
Condition Notes: in vivo
Quantity Kind: Activity (%)
Report as a plain number; the unit % is understood.

In the examples that follow, each entry is paired with its recorded Activity.
INSERT INTO measurements (compound, quantity_kind, recorded_result) VALUES
  ('Cl.N=C(N)N/N=C/c1ccc(-c2ccc(Br)cc2)s1', 'Activity', 0),
  ('Cc1ccc(-c2ccc(/C=N/NC(=N)N)s2)cc1.Cl', 'Activity', 7.41),
  ('Cl.Cl.N=C(N)N/N=C/c1ccc(-c2ccc(/C=N/NC(=N)N)s2)cc1', 'Activity', 0);

Field: next compound
QUERY: If you can, please state the reported Activity value of C[C@@H](c1ncncc1F)[C@](O)(Cn1cncn1)c1ccc(F)cc1F [VORICONAZOLE] .
RESULT: 100

---

Measured Activity accompanies every entry in the list below.
Species on record: Danio rerio
Test Name: Toxicity against zebrafish embryo assessed as teratogenic embryos at 25 ug/ml measured at 96 hrs post fertilization by inverted microscopic analysis
Assay type: organism-based
Condition Notes: in vivo
Could you give me the number in %? Just the number is fine.

INSERT INTO assay_data (chemical_smiles, recorded_result) VALUES
  ('Cl.N=C(N)N/N=C/c1ccc(-c2ccc(Br)cc2)s1', 26.67);

QUERY: Reported Activity, compound Cc1ccc(-c2ccc(/C=N/NC(=N)N)s2)cc1.Cl : ____
RESULT: 0

QUERY: Endpoint output: Activity of Cl.Cl.N=C(N)N/N=C/c1ccc(-c2ccc(/C=N/NC(=N)N)s2)cc1 . Value?
RESULT: 0

QUERY: Activity for C[C@@H](c1ncncc1F)[C@](O)(Cn1cncn1)c1ccc(F)cc1F ?
RESULT: 0
